Stimulation reference
# assayedTarget: GABA-A receptor; anion channel (Homo sapiens) (UniProt P14867+P47870+P18507+P28472+P48169+Q99928+Q9UN88+P34903+O00591+O14764+Q8N1C3+P18505+P78334+P47869+P31644+Q16445)
# test: Binding of [3H]- TBPS radioligand against Gamma-aminobutyric acid receptor at 100 uM
# Format: protein-complex assay
// return the numeric value with its unit appended

Example cases with answers are listed next.
CCC(=O)OC1CCN(C)CC1 ... 9%
CN1CCC(OC(=O)c2ccccc2COc2ccccc2)CC1 ... 37%
CN1CCC(C)(OC(=O)c2ccccc2CCc2ccccc2)CC1 ... 50%

(Q) # Stimulation lookup, item CN1CCC(OC(=O)c2ccccc2C(=O)c2ccccc2)CC1
(A) 1%

(Q) Please give the result for Cc1cc(C)c(C(=O)OC2CCN(C)CC2)cc1C too.
(A) 3%

Data origin: ChEMBL document CHEMBL1123533
